target: GlcNAc(b1-3)Gal(b1-4)GlcNAc(b1-3)Gal(b1-4)GlcNAc(b1-2)Man(a1-3)[GlcNAc(b1-3)Gal(b1-4)GlcNAc(b1-3)Gal(b1-4)GlcNAc(b1-2)Man(a1-6)]Man(b1-4)GlcNAc(b1-4)GlcNAc; test: glycan array binding signal (z-score within array); higher = stronger binding; conditions: glycan notation: IUPAC condensed, linker removed
The sample as a whole holds a higher share of the strongest signals than the screen did.
experimental-readout: glycan array binding signal (z-score)
I only need the number, thanks.

Bench note: what glycan array binding signal (z-score) did LF82 (Escherichia coli) (protein) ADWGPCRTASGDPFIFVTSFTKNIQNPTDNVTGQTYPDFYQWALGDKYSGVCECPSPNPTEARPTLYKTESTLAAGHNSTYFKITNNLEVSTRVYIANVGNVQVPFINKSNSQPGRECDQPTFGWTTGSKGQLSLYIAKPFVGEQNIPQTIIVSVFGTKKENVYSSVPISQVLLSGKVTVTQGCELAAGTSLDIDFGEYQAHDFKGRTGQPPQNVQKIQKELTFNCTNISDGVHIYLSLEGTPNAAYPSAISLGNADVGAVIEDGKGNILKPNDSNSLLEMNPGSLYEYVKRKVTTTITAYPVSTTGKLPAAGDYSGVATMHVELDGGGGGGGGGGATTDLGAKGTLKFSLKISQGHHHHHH show?
1.79
